Assign Dmax to each entry below.
target.or.system: G2019S LRRK2 (Homo sapiens, UniProt Q5S007, G2019S)
Construct: expressed in transfected cells; host or cells: HEK293 (ATCC CRL-1573), transient transfection, mammalian expression vector with ubiquitin promoter
Sequence (Q5S007 whole entry G2019S): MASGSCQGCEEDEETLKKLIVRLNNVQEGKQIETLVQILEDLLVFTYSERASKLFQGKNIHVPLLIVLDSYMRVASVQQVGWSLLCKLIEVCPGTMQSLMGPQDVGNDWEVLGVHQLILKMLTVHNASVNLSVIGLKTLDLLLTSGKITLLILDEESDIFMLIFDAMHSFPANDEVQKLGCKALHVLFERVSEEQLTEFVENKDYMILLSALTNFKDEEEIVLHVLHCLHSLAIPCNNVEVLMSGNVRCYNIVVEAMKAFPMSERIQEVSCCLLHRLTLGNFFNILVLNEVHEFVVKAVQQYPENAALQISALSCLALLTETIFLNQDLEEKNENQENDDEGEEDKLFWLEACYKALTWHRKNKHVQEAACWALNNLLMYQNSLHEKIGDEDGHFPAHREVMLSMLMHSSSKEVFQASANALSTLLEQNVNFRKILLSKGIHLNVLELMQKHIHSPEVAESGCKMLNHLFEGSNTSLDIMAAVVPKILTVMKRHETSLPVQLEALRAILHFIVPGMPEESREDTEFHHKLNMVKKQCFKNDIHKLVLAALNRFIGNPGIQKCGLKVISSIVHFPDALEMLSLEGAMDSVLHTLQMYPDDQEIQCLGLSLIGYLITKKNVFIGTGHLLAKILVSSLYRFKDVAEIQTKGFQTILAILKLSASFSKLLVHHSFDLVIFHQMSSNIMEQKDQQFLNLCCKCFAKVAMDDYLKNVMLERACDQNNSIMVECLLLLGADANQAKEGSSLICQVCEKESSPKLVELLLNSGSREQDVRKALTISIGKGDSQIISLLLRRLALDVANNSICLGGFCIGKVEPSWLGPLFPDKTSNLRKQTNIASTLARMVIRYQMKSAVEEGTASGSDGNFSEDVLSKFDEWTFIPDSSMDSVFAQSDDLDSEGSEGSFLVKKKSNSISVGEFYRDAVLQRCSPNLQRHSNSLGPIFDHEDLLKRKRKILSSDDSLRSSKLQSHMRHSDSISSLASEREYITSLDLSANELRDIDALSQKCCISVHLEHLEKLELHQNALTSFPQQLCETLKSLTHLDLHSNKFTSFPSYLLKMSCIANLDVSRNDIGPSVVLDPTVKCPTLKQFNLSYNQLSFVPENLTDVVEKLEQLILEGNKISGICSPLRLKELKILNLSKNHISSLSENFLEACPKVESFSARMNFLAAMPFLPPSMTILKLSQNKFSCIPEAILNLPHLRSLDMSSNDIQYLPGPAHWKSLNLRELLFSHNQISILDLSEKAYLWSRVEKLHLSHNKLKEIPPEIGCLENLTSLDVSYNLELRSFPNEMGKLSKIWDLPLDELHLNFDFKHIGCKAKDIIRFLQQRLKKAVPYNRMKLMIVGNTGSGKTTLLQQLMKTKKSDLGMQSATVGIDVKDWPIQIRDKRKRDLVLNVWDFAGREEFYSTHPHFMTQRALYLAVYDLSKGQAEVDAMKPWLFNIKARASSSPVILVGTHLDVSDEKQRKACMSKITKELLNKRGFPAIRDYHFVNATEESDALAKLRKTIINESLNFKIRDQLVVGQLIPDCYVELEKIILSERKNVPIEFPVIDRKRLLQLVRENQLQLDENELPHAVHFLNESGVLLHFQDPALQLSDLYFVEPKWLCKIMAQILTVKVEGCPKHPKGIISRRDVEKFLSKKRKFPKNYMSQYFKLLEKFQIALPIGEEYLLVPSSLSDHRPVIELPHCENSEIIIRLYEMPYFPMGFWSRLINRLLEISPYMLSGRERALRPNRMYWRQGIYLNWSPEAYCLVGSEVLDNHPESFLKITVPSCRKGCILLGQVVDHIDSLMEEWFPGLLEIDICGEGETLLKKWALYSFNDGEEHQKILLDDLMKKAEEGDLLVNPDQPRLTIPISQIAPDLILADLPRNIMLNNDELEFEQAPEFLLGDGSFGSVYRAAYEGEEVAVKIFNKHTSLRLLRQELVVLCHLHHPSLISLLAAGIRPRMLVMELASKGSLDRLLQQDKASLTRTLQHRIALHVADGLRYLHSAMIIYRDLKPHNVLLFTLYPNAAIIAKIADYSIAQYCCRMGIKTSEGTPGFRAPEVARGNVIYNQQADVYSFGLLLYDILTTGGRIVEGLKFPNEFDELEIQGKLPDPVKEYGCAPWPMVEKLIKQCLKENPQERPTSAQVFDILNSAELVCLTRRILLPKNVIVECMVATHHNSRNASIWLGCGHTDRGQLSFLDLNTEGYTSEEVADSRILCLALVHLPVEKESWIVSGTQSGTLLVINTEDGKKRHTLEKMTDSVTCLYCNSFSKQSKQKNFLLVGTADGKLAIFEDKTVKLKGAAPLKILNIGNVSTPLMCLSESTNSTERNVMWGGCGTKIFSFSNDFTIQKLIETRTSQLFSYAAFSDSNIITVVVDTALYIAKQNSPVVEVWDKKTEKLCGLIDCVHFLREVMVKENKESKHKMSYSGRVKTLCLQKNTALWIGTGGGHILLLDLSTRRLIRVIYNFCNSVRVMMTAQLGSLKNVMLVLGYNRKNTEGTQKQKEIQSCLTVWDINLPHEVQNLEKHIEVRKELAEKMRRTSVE
experiment.summary: LRRK2 degradation assay, HiBit-tagged G2019S LRRK2 expressed from plasmid in HEK293 cells (Nano-Glo Dual-Luciferase)
Format: cell-based
condition.label: HiBit-tagged G2019S LRRK2 in HEK293 cells, 24 hours

Reported Dmax of CC1(Oc2ccc3[nH]nc(-c4cc(N5C[C@@H]6[C@@H](CN7CCN(CC8CCN(c9ccc%10c(c9)C(=O)N(C9CCC(=O)NC9=O)C%10=O)CC8)CC7)[C@@H]6C5)ncn4)c3c2)CC1 (stereo partly drawn) [Compound 75] : ≥ 70%

Record CC1(Oc2ccc3[nH]nc(-c4cc(N5CCN(CC6CCN(CCCCNc7cccc8c7CN(C7CCC(=O)NC7=O)C8=O)CC6)CC5)ncn4)c3c2)CC1 (stereo not drawn) [Compound 143] . Reported Dmax: 50 to 70%

Summary for this compound, CC1(Oc2ccc3[nH]nc(-c4cc(N5C[C@@H]6[C@H](CN7CCN(CC8CCN(c9ccc%10c(c9)C(=O)N(C9CCC(=O)NC9=O)C%10=O)CC8)CC7)[C@@H]6C5)ncn4)c3c2)CC1 (stereo partly drawn) [Compound 74] : Dmax is < 50%

* * *

target.or.system: G2019S LRRK2 (Homo sapiens, UniProt Q5S007, G2019S)
Construct: expressed in transfected cells; host or cells: HEK293 (ATCC CRL-1573), transient transfection, mammalian expression vector with ubiquitin promoter
experiment.summary: LRRK2 degradation assay, HiBit-tagged G2019S LRRK2 expressed from plasmid in HEK293 cells (Nano-Glo Dual-Luciferase)
Assay type: cell-based
condition.label: HiBit-tagged G2019S LRRK2 in HEK293 cells, 24 hours
Would you kindly list Dmax for each of these molecules?

Entry CC1(Oc2ccc3[nH]nc(-c4cc(N5CC(CN6CCN(CC7CCN(c8ccc9c(c8)C(=O)N(C8CCC(=O)NC8=O)C9=O)CC7)CC6)C5)ncn4)c3c2)CC1 (stereo not shown) , G2019S LRRK2 (Homo sapiens, UniProt Q5S007, G2019S) data, Dmax value: ≥ 70%

Form field, Dmax with G2019S LRRK2 (Homo sapiens, UniProt Q5S007, G2019S), item CC1(Oc2ccc3[nH]nc(-c4cc(N5CCN(C[C@@H]6CC(=O)N(CC7CCN(c8ccc9c(c8)C(=O)N(C8CCC(=O)NC8=O)C9=O)CC7)C6)CC5)ncn4)c3c2)CC1 (single isomer, unassigned) : 50 to 70%

The molecule CC1(Oc2ccc3[nH]nc(-c4cc(N5CCC(O[C@H]6CCN(CC7CCN(c8ccc9c(c8)C(=O)N(C8CCC(=O)NC8=O)C9=O)CC7)C6)CC5)ncn4)c3c2)CC1 (stereo partly shown) , tested on G2019S LRRK2 (Homo sapiens, UniProt Q5S007, G2019S), showed Dmax of < 50%

The measured Dmax that CC1(Oc2ccc3n[nH]c(-c4cc(N5CCC(CN6CCN(CC7(F)CN(c8ccc9c(c8)C(=O)N(C8CCC(=O)NC8=O)C9=O)C7)CC6)CC5)ncn4)c3c2)CC1 (stereo not shown) showed for G2019S LRRK2 (Homo sapiens, UniProt Q5S007, G2019S) is 50 to 70%
